Organism: Homo sapiens
Test: Selectivity ratio of Ki for human recombinant CB1 receptor to KI for human recombinant CB2 receptor
Measured Ratio Ki, listed per entry.
Reply with just the number.

compound: CCC1COc2c(F)c(F)cc3c(=O)c(C(=O)NC45CC6CC(CC(C6)C4)C5)cn1c23 (racemic)
Ratio Ki: 53

For this compound ( CCC1COc2cccc3c(=O)c(C(=O)NC4CCCCCC4)cn1c23 (racemic) ), measured Ratio Ki is 47

For this compound ( O=C(NC12CC3CC(CC(C3)C1)C2)c1cn2c3c(cccc3c1=O)OC[C@H]2Cc1ccccc1 ), measured Ratio Ki is 28

For this compound ( O=C(NC1CCCCC1)c1cn2c3c(cccc3c1=O)OCC2C1CC1 (racemic) ), measured Ratio Ki is 7

----------
Biological target: Cannabinoid receptor 1 (Rattus norvegicus, UniProt P20272)
Sequence (P20272 whole entry): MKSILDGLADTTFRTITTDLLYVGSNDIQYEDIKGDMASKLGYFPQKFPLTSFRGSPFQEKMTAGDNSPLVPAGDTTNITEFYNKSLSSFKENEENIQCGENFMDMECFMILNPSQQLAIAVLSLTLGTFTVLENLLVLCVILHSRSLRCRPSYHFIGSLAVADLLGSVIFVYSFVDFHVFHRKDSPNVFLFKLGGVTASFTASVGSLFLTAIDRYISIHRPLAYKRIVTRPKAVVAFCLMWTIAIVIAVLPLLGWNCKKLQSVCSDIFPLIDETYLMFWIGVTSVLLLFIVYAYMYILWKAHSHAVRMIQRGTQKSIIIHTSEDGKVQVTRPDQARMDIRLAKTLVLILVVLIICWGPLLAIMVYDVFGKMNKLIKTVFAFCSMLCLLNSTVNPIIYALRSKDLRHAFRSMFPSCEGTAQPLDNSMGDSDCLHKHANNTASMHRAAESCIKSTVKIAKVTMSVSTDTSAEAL
readout_type: log10 Ki (log10 of the value in nM)
Would you kindly interpret these values as log10 of Ki expressed in nM?

molecule: O=C(NC12CC3CC(CC(C3)C1)C2)c1cn2c3c(cccc3c1=O)OCC2c1ccccc1 (racemic)
log10 Ki: 2.83
--
molecule: O=C(NC12CC3CC(CC(C3)C1)C2)c1cn2c3c(cccc3c1=O)OCC2C1CC1 (racemic)
log10 Ki: 2.68
--
molecule: CCC1COc2cccc3c(=O)c(C(=O)NC4CCCCC4)cn1c23 (racemic)
log10 Ki: 2.99
--
molecule: Cc1ccc(C2COc3cccc4c(=O)c(C(=O)NC56CC7CC(CC(C7)C5)C6)cn2c34)cc1 (racemic)
log10 Ki: 3.62
--
molecule: O=C(NC1CCCCC1)c1cn2c3c(cccc3c1=O)OCC2C1CC1 (racemic)
log10 Ki: 2.09

Now consider the entry below.
The molecule CC1Oc2cccc3c(=O)c(C(=O)NC4CCCCC4)cn(c23)C1c1ccccc1 (racemic) on Cannabinoid receptor 1 (Rattus norvegicus, UniProt P20272): log10 Ki was 3.55

----------
Biological target: Cannabinoid receptor 2 (Homo sapiens)
Test: Displacement of [3H]CP-55940 from human recombinant CB2 receptor expressed in CHO cell membranes incubated for 60 mins by scintillation counting
pKi: −log10 of the molar value.
Label N if pKi falls below 8; label Y in every other case.

# count of solved cases: 5
molecule: CC1(C)COc2cccc3c(=O)c(C(=O)NC45CC6CC(CC(C6)C4)C5)cn1c23
category: N
//
molecule: CCC1COc2c(N3CCN(C)CC3)ccc3c(=O)c(C(=O)NC45CC6CC(CC(C6)C4)C5)cn1c23 (racemic)
category: N
//
molecule: CCC1COc2cccc3c(=O)c(C(=O)N(C(C)C)C(C)C)cn1c23 (racemic)
category: N
//
molecule: C[C@H]1COc2cccc3c(=O)c(C(=O)NC4CCCCC4)cn1c23
category: N
//
molecule: C[C@H]1COc2cccc3c(=O)c(C(=O)NC45CC6CC(CC(C6)C4)C5)cn1c23
category: N

Test whether the molecule C[C@@H]1COc2cccc3c(=O)c(C(=O)NC4CCCCC4)cn1c23 records pKi of 8 or higher.
N

Test whether the molecule CC(C)C1COc2cccc3c(=O)c(C(=O)NC45CC6CC(CC(C6)C4)C5)cn1c23 (racemic) records pKi of 8 or higher.
Y

Test whether the molecule CC[C@@H]1COc2cccc3c(=O)c(C(=O)NC45CC6CC(CC(C6)C4)C5)cn1c23 records pKi of 8 or higher.
Y

Test whether the molecule CC[C@H]1COc2cccc3c(=O)c(C(=O)NC4CCCCCC4)cn1c23 records pKi of 8 or higher.
N

Test whether the molecule CC[C@@H]1COc2cccc3c(=O)c(C(=O)NC4CCCCCC4)cn1c23 records pKi of 8 or higher.
Y

Test whether the molecule CCCC1COc2cccc3c(=O)c(C(=O)NC4CCCCC4)cn1c23 (racemic) records pKi of 8 or higher.
Y

Test whether the molecule CC1COc2cccc3c(=O)c(C(=O)NC4CCCCCC4)cn1c23 (racemic) records pKi of 8 or higher.
N

Test whether the molecule CC1Oc2cccc3c(=O)c(C(=O)NC45CC6CC(CC(C6)C4)C5)cn(c23)C1c1ccccc1 (racemic) records pKi of 8 or higher.
N

Test whether the molecule CC12CC3CC(C)(C1)CC(NC(=O)c1cn4c5c(cccc5c1=O)OCC4c1ccccc1)(C3)C2 (racemic) records pKi of 8 or higher.
Y

Test whether the molecule O=C(NC1CCCCCC1)c1cn2c3c(cccc3c1=O)OCC2c1ccccc1 (racemic) records pKi of 8 or higher.
Y

Test whether the molecule C[C@@H]1COc2cccc3c(=O)c(C(=O)NC45CC6CC(CC(C6)C4)C5)cn1c23 records pKi of 8 or higher.
N

----------
Biological target: Cannabinoid receptor 2 (Homo sapiens, UniProt P34972)
Sequence (P34972 whole entry): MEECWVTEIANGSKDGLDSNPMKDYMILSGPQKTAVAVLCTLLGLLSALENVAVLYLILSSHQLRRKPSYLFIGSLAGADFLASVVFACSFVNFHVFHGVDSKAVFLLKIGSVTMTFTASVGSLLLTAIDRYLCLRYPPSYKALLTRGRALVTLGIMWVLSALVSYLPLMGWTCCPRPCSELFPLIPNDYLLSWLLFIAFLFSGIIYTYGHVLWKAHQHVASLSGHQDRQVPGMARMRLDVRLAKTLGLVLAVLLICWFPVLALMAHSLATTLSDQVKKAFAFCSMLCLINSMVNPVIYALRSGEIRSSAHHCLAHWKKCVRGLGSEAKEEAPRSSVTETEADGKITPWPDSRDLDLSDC
Assay: Agonist activity at human recombinant CB2 receptor expressed in CHO cell membranes assessed as inhibition of forskolin-induced cAMP accumulation
readout_type: IC50 (nM)
A number alone suffices; assume nM.

// known answers, use as guide
molecule: O=C(NC1CCCCCC1)c1cn2c3c(cccc3c1=O)OCC2C1CC1 (racemic)
result: 12.4
--
molecule: CCC1COc2cccc3c(=O)c(C(=O)NC4CCCCC4)cn1c23 (racemic)
result: 62
--
molecule: C[C@H]1COc2cccc3c(=O)c(C(=O)NC45CC6CC(CC(C6)C4)C5)cn1c23
result: 250
--
molecule: CC(C)[C@@H]1COc2cccc3c(=O)c(C(=O)NC45CC6CC(CC(C6)C4)C5)cn1c23
result: 9.84

For this molecule ( CCC1COc2cccc3c(=O)c(C(=O)NC4C5CC6CC(C5)CC4C6)cn1c23 (racemic) ), measured IC50 is 57

----------
Species: Homo sapiens
Experiment: Selectivity ratio of Ki for human recombinant CB1 receptor to KI for human recombinant CB2 receptor
Measured Ratio Ki, listed per entry.
Reply with just the number.

// known answers, use as guide
molecule: C[C@H]1COc2cccc3c(=O)c(C(=O)NC4CCCCC4)cn1c23
Ratio Ki: 25

molecule: CC[C@@H]1COc2cccc3c(=O)c(C(=O)NC4CCCCCC4)cn1c23
Ratio Ki: 25

molecule: C[C@@H]1COc2cccc3c(=O)c(C(=O)NC4CCCCC4)cn1c23
Ratio Ki: 119

For this molecule ( CCC1COc2c(F)ccc3c(=O)c(C(=O)NC45CC6CC(CC(C6)C4)C5)cn1c23 (racemic) ), measured Ratio Ki is 53

For this molecule ( CCC1COc2cccc3c(=O)c(C(=O)Nc4ccncc4)cn1c23 (racemic) ), measured Ratio Ki is 8

For this molecule ( O=C(NC12CC3CC(CC(C3)C1)C2)c1cn2c3c(cccc3c1=O)OCC2C1CC1 (racemic) ), measured Ratio Ki is 44

For this molecule ( Cc1ccc(C2COc3cccc4c(=O)c(C(=O)NC56CC7CC(CC(C7)C5)C6)cn2c34)cc1 (racemic) ), measured Ratio Ki is 9.41

For this molecule ( Cc1cc2c3c(c1)c(=O)c(C(=O)NC1CCCCC1)cn3C(c1ccccc1)CO2 (racemic) ), measured Ratio Ki is 73

----------
Biological target: Cannabinoid receptor 1 (Homo sapiens, UniProt P21554)
Sequence (P21554 whole entry): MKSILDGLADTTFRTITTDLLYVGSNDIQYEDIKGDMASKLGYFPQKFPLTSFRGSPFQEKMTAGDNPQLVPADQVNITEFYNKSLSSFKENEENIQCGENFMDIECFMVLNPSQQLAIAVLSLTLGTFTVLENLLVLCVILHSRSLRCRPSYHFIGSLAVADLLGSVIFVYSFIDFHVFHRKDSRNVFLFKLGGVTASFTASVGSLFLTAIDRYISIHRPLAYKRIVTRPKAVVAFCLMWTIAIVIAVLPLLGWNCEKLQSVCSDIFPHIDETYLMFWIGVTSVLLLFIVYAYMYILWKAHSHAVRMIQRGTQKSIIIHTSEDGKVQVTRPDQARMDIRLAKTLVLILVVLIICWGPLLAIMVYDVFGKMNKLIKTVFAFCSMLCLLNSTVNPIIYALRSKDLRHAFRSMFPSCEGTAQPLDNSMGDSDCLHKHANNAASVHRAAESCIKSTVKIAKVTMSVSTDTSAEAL
Assay: Displacement of [3H]CP-55940 from human recombinant CB1 receptor expressed in CHO cell membranes incubated for 90 mins by scintillation counting
readout_type: Ki
Remember to quote the unit after the number.

compound: CC1Oc2cccc3c(=O)c(C(=O)NC4CCCCC4)cn(c23)C1c1ccccc1 (racemic)
Ki: 3130 nM
//
compound: CCC1COc2cccc3c(=O)c(C(=O)Nc4ccncc4)cn1c23 (racemic)
Ki: 1150 nM
//
compound: CCCC1COc2cccc3c(=O)c(C(=O)NC45CC6CC(C)(CC(C)(C6)C4)C5)cn1c23 (racemic)
Ki: 200 nM
//
compound: CC(C)[C@H]1COc2cccc3c(=O)c(C(=O)NC45CC6CC(CC(C6)C4)C5)cn1c23
Ki: 858 nM

Now consider the entry below.
For this compound ( CCCC1COc2ccc(C)c3c(=O)c(C(=O)NC4CCCCC4)cn1c23 (racemic) ), measured Ki is 756 nM

----------
Biological target: Cannabinoid receptor 1 (Homo sapiens, UniProt P21554)
Assay: Displacement of [3H]CP-55940 from human recombinant CB1 receptor expressed in CHO cell membranes incubated for 90 mins by scintillation counting
Lab note: compare Ki with 400 nM, writing T if less and F if equal or more.

# count of solved cases: 5
compound: C[C@@H]1COc2cccc3c(=O)c(C(=O)NC45CC6CC(CC(C6)C4)C5)cn1c23
category: F
--
compound: C[C@H]1COc2cccc3c(=O)c(C(=O)NC45CC6CC(CC(C6)C4)C5)cn1c23
category: F
--
compound: CC1COc2cccc3c(=O)c(C(=O)NC45CC6CC(CC(C6)C4)C5)cn1c23 (racemic)
category: F
--
compound: CC(C)[C@@H]1COc2cccc3c(=O)c(C(=O)NC45CC6CC(CC(C6)C4)C5)cn1c23
category: T
--
compound: CCC1COc2cccc3c(=O)c(C(=O)N(C(C)C)C(C)C)cn1c23 (racemic)
category: F

Please let me know if O=C(NC1CCCCC1)c1cn2c3c(cccc3c1=O)OCC2c1ccccc1 (racemic) shows Ki below 400 nM.
F

Please let me know if CCC1COc2c(OC)ccc3c(=O)c(C(=O)NC45CC6CC(CC(C6)C4)C5)cn1c23 (racemic) shows Ki below 400 nM.
F

Please let me know if O=C(NC12CC3CC(CC(C3)C1)C2)c1cn2c3c(cccc3c1=O)OCC2c1ccccc1 (racemic) shows Ki below 400 nM.
T
